Property: MIC, Staph. aureus; scope: individual compounds
# System: Staphylococcus aureus IAM 1011
# Method description: Antibacterial activity (MIC), agar plate, Staph. aureus
# Assay type: cell-based
# Set-up: unit not given beside the values
# Conditions: Mueller-Hinton agar, 37° C., 18 to 24 hours; unit not given
Measured property: MIC, Staph. aureus

>>> result("COC(=O)C[C@H](NC(=O)C1=C(COC(C)=O)CSC2C(NC(=O)Cc3cccs3)C(=O)N12)C(=O)OC (stereo partly shown) [Example 1]")
"≥ 12.5"
>>> result("COC(=O)[C@H](CCSC)NC(=O)C1=C(COC(C)=O)CSC2C(NC(=O)Cc3cccs3)C(=O)N12 (stereo partly shown) [Example 2]")
"≥ 12.5"
>>> result("COC(=O)CCC(NC(=O)C1=C(COC(C)=O)CSC2C(NC(=O)Cc3cccs3)C(=O)N12)C(=O)OC (stereo not shown) [Example 4]")
12.5
>>> result("CCOC(=O)C(Cc1ccc(O)cc1)NC(=O)C1=C(COC(C)=O)CSC2C(NC(=O)Cc3cccs3)C(=O)N12 (stereo not shown) [Example 3]")
"≥ 12.5"

====

# Test system: Bacteroides
# Method description: Effect on the intestinal bacterial colonies: Bacteroides count in mouse feces
# Type: in vivo
# Conditions: in vivo, po, 500 mg/kg/day
Logarithmic value of the number of bacterial cells per one g of feces: Bacteroides values by entry
Measured property: Logarithmic value of the number of bacterial cells per one g of feces: Bacteroides

>>> result("COC(=O)C[C@H](NC(=O)C1=C(COC(C)=O)CSC2C(NC(=O)Cc3cccs3)C(=O)N12)C(=O)OC (stereo partly shown)")
"8.5 Logarithmic value of the numbe"
>>> result("COC(=O)[C@H](CCSC)NC(=O)C1=C(COC(C)=O)CSC2C(NC(=O)Cc3cccs3)C(=O)N12 (stereo partly shown)")
"8.8 Logarithmic value of the numbe"
>>> result("COC(=O)CCC(NC(=O)C1=C(COC(C)=O)CSC2C(NC(=O)Cc3cccs3)C(=O)N12)C(=O)OC (stereo not shown)")
"8.3 Logarithmic value of the numbe"
>>> result("CCOC(=O)C(Cc1ccc(O)cc1)NC(=O)C1=C(COC(C)=O)CSC2C(NC(=O)Cc3cccs3)C(=O)N12 (stereo not shown)")
"8.7 Logarithmic value of the numbe"

====

Recorded measurements of Logarithmic value of the number of bacterial cells per one g of feces: Ps. aeruginosa, one per entry
# Test system: Pseudomonas aeruginosa
# Method description: Effect on the intestinal bacterial colonies: Ps. aeruginosa count in mouse feces
# Format: in vivo
# Conditions: in vivo, po, 500 mg/kg/day
Measured property: Logarithmic value of the number of bacterial cells per one g of feces: Ps. aeruginosa

>>> result("COC(=O)[C@H](CCSC)NC(=O)C1=C(COC(C)=O)CSC2C(NC(=O)Cc3cccs3)C(=O)N12 (stereo partly shown)")
"< 3.0 Logarithmic value of the numbe"
>>> result("COC(=O)C[C@H](NC(=O)C1=C(COC(C)=O)CSC2C(NC(=O)Cc3cccs3)C(=O)N12)C(=O)OC (stereo partly shown)")
"< 3.3 Logarithmic value of the numbe"
>>> result("COC(=O)CCC(NC(=O)C1=C(COC(C)=O)CSC2C(NC(=O)Cc3cccs3)C(=O)N12)C(=O)OC (stereo not shown)")
"< 3.9 Logarithmic value of the numbe"
>>> result("CCOC(=O)C(Cc1ccc(O)cc1)NC(=O)C1=C(COC(C)=O)CSC2C(NC(=O)Cc3cccs3)C(=O)N12 (stereo not shown)")
"< 3.0 Logarithmic value of the numbe"

These measurements were taken from patent US4446137A.
